molecular target: T1, Recombinant human CD4 (R&D Systems, Cat. 10327-CD) (human, UniProt P01730 26-390, limits assumed); test: BLI Octet, mAb on anti-mouse Fc sensor, CD4 100/50/25 nM, 1:1 global fit;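 note: antibodies loaded at 10 µg/mL, an unrelated mouse-derived antibody served as internal reference control, association and dissociation phases fitted after Savitzky-Golay smoothing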
T1 construct: Soluble analyte in the Octet assay
Labelling field: enter Y if recorded Response is less than 0.1. Enter N if it equals or exceeds that cut-off.

Q) Could you please tell me whether Response recorded for 75110_01K10A (antibody, V domains shown, Tested as antibody purified from AlivaMab Mouse hybridoma supernatant (captured by anti-mouse IgG Fc)) VH: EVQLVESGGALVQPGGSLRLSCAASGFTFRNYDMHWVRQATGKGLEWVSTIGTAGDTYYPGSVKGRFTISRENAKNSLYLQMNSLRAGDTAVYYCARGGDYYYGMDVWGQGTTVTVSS VL: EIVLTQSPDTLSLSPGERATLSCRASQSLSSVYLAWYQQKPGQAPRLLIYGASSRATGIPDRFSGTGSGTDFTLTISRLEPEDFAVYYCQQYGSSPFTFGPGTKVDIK is less than 0.1?
A) Y

Q) Would you kindly verify if Response of 75110_01D24A (antibody, V domains shown, Tested as antibody purified from AlivaMab Mouse hybridoma supernatant (captured by anti-mouse IgG Fc)) VH: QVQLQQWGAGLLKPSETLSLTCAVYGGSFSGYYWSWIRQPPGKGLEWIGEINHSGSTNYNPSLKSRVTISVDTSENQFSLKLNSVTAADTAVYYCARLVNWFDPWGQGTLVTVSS VL: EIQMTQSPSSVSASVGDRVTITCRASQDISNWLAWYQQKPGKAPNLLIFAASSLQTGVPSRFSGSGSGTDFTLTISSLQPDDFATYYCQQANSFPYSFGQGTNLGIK is strictly less than 0.1?
A) N

Q) hey, is Response for 75110_02I18A (antibody, V domains shown, Tested as antibody purified from AlivaMab Mouse hybridoma supernatant (captured by anti-mouse IgG Fc)) VH: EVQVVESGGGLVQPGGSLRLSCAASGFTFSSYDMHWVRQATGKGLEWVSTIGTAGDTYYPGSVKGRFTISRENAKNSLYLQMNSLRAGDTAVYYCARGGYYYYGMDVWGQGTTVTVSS VL: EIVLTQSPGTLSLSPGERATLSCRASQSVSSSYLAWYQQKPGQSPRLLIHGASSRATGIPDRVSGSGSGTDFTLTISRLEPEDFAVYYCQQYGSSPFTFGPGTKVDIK lower than 0.1 or not?
A) Y

Q) In plain terms, does 75110_01H18A (antibody, V domains shown, Tested as antibody purified from AlivaMab Mouse hybridoma supernatant (captured by anti-mouse IgG Fc)) VH: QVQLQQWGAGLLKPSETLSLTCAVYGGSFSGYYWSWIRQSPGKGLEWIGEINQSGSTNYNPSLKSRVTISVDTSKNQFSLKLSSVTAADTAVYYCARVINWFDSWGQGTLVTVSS VL: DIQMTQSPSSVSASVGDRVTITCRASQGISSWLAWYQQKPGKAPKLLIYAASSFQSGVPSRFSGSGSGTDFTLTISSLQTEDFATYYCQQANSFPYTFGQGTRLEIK come in under 0.1 for Response?
A) N

Q) Lab note: confirm whether the reported Response for this binder is below 0.1, equality not counting. binder: 75110_01C18A (antibody, V domains shown, Tested as antibody purified from AlivaMab Mouse hybridoma supernatant (captured by anti-mouse IgG Fc)) VH: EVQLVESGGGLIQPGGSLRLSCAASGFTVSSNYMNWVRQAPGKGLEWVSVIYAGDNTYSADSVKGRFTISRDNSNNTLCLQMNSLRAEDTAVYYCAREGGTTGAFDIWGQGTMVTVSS VL: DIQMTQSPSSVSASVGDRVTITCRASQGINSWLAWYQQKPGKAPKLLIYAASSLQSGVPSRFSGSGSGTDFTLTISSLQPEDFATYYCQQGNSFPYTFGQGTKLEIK
A) N

Q) Does the reported Response of 75110_01J17A (antibody, V domains shown, Tested as antibody purified from AlivaMab Mouse hybridoma supernatant (captured by anti-mouse IgG Fc)) VH: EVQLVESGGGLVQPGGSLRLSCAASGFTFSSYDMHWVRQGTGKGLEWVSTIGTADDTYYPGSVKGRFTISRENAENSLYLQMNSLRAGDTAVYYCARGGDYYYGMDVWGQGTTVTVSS VL: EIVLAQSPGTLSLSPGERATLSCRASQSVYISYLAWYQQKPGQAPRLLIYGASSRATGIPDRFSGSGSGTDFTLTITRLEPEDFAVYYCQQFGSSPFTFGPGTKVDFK stay below 0.1?
A) Y

Q) Is Response strictly under 0.1 for the entry 75110_05B13A (antibody, V domains shown, Tested as antibody purified from AlivaMab Mouse hybridoma supernatant (captured by anti-mouse IgG Fc)) VH: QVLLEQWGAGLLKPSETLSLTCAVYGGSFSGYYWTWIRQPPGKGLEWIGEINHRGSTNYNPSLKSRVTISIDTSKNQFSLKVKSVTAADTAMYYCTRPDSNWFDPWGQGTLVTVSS VL: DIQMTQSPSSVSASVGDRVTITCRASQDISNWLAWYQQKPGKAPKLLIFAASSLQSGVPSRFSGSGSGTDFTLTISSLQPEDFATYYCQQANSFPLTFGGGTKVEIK ?
A) N

Q) API: query returns whether the binder falls strictly under 0.1 in Response. Query: 75110_05E05A (antibody, V domains shown, Tested as antibody purified from AlivaMab Mouse hybridoma supernatant (captured by anti-mouse IgG Fc)) VH: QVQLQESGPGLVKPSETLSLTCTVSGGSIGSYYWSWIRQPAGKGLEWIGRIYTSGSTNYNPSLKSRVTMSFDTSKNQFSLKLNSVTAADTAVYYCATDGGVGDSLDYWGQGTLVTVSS VL: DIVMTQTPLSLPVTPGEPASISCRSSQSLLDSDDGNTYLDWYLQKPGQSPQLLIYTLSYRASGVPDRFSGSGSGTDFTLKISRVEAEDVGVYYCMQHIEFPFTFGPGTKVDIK
A) N

Q) Is the reported Response for 75110_04P06A (antibody, V domains shown, Tested as antibody purified from AlivaMab Mouse hybridoma supernatant (captured by anti-mouse IgG Fc)) VH: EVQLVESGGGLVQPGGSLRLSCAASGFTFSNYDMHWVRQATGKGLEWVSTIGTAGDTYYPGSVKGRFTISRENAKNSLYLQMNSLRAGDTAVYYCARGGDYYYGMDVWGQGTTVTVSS VL: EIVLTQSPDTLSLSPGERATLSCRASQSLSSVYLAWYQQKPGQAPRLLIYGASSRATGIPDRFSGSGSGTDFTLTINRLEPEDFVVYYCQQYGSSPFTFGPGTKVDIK strictly below 0.1?
A) Y

Q) Record 75110_01G11A (antibody, V domains shown, Tested as antibody purified from AlivaMab Mouse hybridoma supernatant (captured by anti-mouse IgG Fc)) VH: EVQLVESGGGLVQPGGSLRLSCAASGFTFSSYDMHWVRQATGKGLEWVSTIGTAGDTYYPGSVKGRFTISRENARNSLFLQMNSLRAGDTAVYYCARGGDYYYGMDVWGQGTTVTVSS VL: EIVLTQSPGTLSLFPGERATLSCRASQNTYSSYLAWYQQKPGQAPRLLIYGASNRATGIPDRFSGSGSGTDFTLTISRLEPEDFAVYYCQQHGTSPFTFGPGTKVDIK : is its Response strictly below 0.1?
A) N
